So I've got a bunch of molecules here, and I need their IC50 values.
- ASSAY_SYSTEM: purified human Hsp90
- ASSAY: Binding Assay: fluorescence polarization with BODIPY-labeled geldanamycin
- CONDITION_INFO: BODIPY-GM 10 nM, Hsp90 30 nM
Numbers only, in nM.

These recorded examples may help you get a feel for the data.
>>> test_result("Nc1ncnc2c1nc(Sc1cc3c(cc1Br)OCO3)n2CC[C@H]1CC[C@@H](N)CC1 [Example 481]")
50
>>> test_result("Nc1ncnc2c1nc(Sc1cc3c(cc1Br)OCO3)n2CCC1CCN(C(=O)C2CCC2)CC1 [Example 512]")
110
>>> test_result("COc1ccc(OC)c(Sc2nc3c(N)ncnc3n2CCC2CCOCC2)c1 [Example 348]")
800
>>> test_result("COc1ccc(CCn2c(Sc3cc4c(cc3Br)OCO4)nc3c(N)ncnc32)cc1OC [Example 296]")
350

Read the next record carefully.
IC50 lookup needed for Nc1ncnc2c1nc(Sc1cc3c(cc1Br)OCO3)n2CCN1CCOC1=O [Example 586] , thanks.
450
